Data credit: patent US7358276B2

Labelling field: enter 1 (yes) if recorded melting point is less than 100 °C. Enter 0 (no) if it equals or exceeds that cut-off.

| Molecule | Answer Label |
| --- | --- |
| CCC(C(N)=O)N1CC(c2ccccc2Br)CC1=O (stereo not drawn) [Compound 95] | 0 (no) |
| CC[C@@H](C(N)=O)N1CC(CC2CC2)CC1=O (stereo partly drawn) [Compound 212] | 0 (no) |
| CC[C@@H](C(N)=O)N1CC(c2cccc(OC)c2)CC1=O (stereo partly drawn) [Compound 75] | 1 (yes) |
| CCC(C(N)=O)N1CC(c2ccccc2F)CC1=O (stereo not drawn) [Compound 211] | 0 (no) |
| CC[C@@H](C(N)=O)N1CC(c2ccccc2)CC1=O (stereo partly drawn) [Compound 22] | 1 (yes) |
| CCC(C(N)=O)N1CC(C=C(Br)Br)CC1=O (stereo not drawn) [Compound 33] | 0 (no) |
| CCC(C(N)=O)N1CC(c2cccc(C)c2)CC1=O (stereo not drawn) [Compound 219] | 1 (yes) |
| CC[C@@H](C(N)=O)N1CC(C)CC1=O (stereo partly drawn) [36] | 1 (yes) |
| CC[C@@H](C(N)=O)N1CC(c2cccc(N=[N+]=[N-])c2)CC1=O (single isomer, unassigned) [Compound 86] | 1 (yes) |
| CCC(C(N)=O)N1CC(/C=C\F)CC1=O (stereo not drawn) [Compound 162] | 0 (no) |
| CC[C@@H](C(N)=O)N1CC(CCc2ccccc2)CC1=O (stereo partly drawn) [Compound 175] | 1 (yes) |
| CC[C@@H](C(N)=O)N1CC(CI)CC1=O (stereo partly drawn) [Compound 27] | 0 (no) |
| CCC(C(N)=O)N1CC(C#CBr)CC1=O (stereo not drawn) [Compound 267] | 0 (no) |
| C=C[C@H]1CC(=O)N([C@@H](CC)C(N)=O)C1 [Compound 93] | 1 (yes) |
| CC[C@@H](C(N)=O)N1CC(C)CC1=O (stereo partly drawn) [35] | 1 (yes) |
| CC[C@@H](C(N)=O)N1CC(CCC(F)(F)F)CC1=O (stereo partly drawn) [Compound 215] | 0 (no) |
| C=CCC1CC(=O)N([C@@H](CC)C(N)=O)C1 (stereo partly drawn) [Compound 224] | 1 (yes) |
| CC[C@@H](C(N)=O)N1CC(c2ccccc2)CC1=O (stereo partly drawn) [Compound 23] | 1 (yes) |
| CC[C@@H](C(N)=O)N1CC(c2ccccc2OC)CC1=O (stereo partly drawn) [Compound 73] | 0 (no) |
| CC[C@@H](C(N)=O)N1CC(CN=[N+]=[N-])CC1=O (stereo partly drawn) [Compound 32] | 1 (yes) |
